run-parameters: heparin concentration vs RFU, linear regression
readout: Gradient Parameters (gradient of regression line)
Lab note: record the figure alone, no unit after it.

- molecule: "Cl.Cl.O=C(Cc1cc(-c2cccs2)sc1-c1ccc(-c2sc(-c3cccs3)cc2CC(=O)NCCc2c[nH]cn2)s1)NCCc1c[nH]cn1 [pHTA-His]"
  test-value: 26.3
- molecule: "O=C([O-])CC[C@H](NC(=O)Cc1cc(-c2cccs2)sc1-c1ccc(-c2sc(-c3cccs3)cc2CC(=O)N[C@@H](CCC(=O)[O-])C(=O)[O-])s1)C(=O)[O-].[Na+].[Na+].[Na+].[Na+] [pHTA-Glu]"
  test-value: "−12.4"

For the next question, use this molecule.
Exam item: Can you look up the measured Gradient Parameters (gradient of regression line) of Cl.Cl.c1csc(-c2cc(CCn3ccnc3)c(-c3ccc(-c4sc(-c5cccs5)cc4CCn4ccnc4)s3)s2)c1 [pHTIm, penta Hydrogen Thiophene Imidazole] for me?
Marked response: 96.3

====

run-parameters: β-1,3-glucan 10-[…], 3 μM probe, probe-specific excitation λ, emission 545 nm
readout: RFU change (Correlation analysis)

- compound: "O=C([O-])C[C@H](NC(=O)Cc1cc(-c2cccs2)sc1-c1ccc(-c2sc(-c3cccs3)cc2CC(=O)N[C@@H](CC(=O)[O-])C(=O)[O-])s1)C(=O)[O-].[Na+].[Na+].[Na+].[Na+]"
  test-value: "Decrease"
- compound: "O=C([O-])CC[C@H](NC(=O)Cc1cc(-c2cccs2)sc1-c1ccc(-c2sc(-c3cccs3)cc2CC(=O)N[C@@H](CCC(=O)[O-])C(=O)[O-])s1)C(=O)[O-].[Na+].[Na+].[Na+].[Na+]"
  test-value: "Decrease"
- compound: "NCCCC[C@H](NC(=O)Cc1cc(-c2cccs2)sc1-c1ccc(-c2sc(-c3cccs3)cc2CC(=O)N[C@@H](CCCCN)C(=O)[O-])s1)C(=O)[O-].[Na+].[Na+]"
  test-value: "Increase"
- compound: "Cl.Cl.N=C(N)NCCC[C@H](NC(=O)Cc1cc(-c2cccs2)sc1-c1ccc(-c2sc(-c3cccs3)cc2CC(=O)N[C@@H](CCCNC(=N)N)C(=O)O)s1)C(=O)O"
  test-value: "Increase"
- compound: "Cl.Cl.NCCc1cc(-c2cccs2)sc1-c1ccc(-c2sc(-c3cccs3)cc2CCN)s1 [pHTEA, penta Hydrogen Thiophene Ethanol Amine]"
  test-value: "Decrease"

Exam item: Dear colleague, I am looking for the recorded RFU change (Correlation analysis) of the following compound: Cl.Cl.c1csc(-c2cc(CCn3ccnc3)c(-c3ccc(-c4sc(-c5cccs5)cc4CCn4ccnc4)s3)s2)c1 [pHTIm, penta Hydrogen Thiophene Imidazole]
Marked response: Decrease

Exam item: Query O=C(Cc1cc(-c2cccs2)sc1-c1ccc(-c2sc(-c3cccs3)cc2CC(=O)N[C@@H](Cc2ccc([O-])cc2)C(=O)[O-])s1)N[C@@H](Cc1ccc([O-])cc1)C(=O)[O-].[Na+].[Na+].[Na+].[Na+] next
Marked response: Decrease

====

run-parameters: Chondroitin Sulfate A concentration vs RFU, linear regression

- molecule: "O=C(Cc1cc(-c2cccs2)sc1-c1ccc(-c2sc(-c3cccs3)cc2CC(=O)N[C@@H](Cc2ccc([O-])cc2)C(=O)[O-])s1)N[C@@H](Cc1ccc([O-])cc1)C(=O)[O-].[Na+].[Na+].[Na+].[Na+]"
  Linear relationship: "Significant"
- molecule: "Cl.Cl.O=C(Cc1cc(-c2cccs2)sc1-c1ccc(-c2sc(-c3cccs3)cc2CC(=O)NCCc2c[nH]cn2)s1)NCCc1c[nH]cn1"
  Linear relationship: "Significant"
- molecule: "Cl.Cl.NCCc1cc(-c2cccs2)sc1-c1ccc(-c2sc(-c3cccs3)cc2CCN)s1 [pHTEA, penta Hydrogen Thiophene Ethanol Amine]"
  Linear relationship: "Significant"
